test system: HepG2 cell line; assay: In vitro toxicity study on HepG2 cell line (resazurin, viability and IC50); type: cell-based, human; settings: HepG2 cells, 400 μM lipid, 48 h post-treatment, resazurin, relative to ethanol vehicle controls
Below: a set of entries, each annotated with reported Viability (%) at different lipid concentrations, mean.
The response must be a number in % with no trailing unit.

[
  {
    "compound": "CCCCCCCC/C=C\\CCCCCCCC(OCC(CCCCCC)CCCCCCCC)O[Si](C)(C)OCCCCCCN(CCO)CCO (centres unmarked) [Example 50]",
    "assay.result": 96.5
  },
  {
    "compound": "CCCCC/C=C\\C/C=C\\CCCCCCCCOC(CCCCCCC/C=C\\C/C=C\\CCCCC)O[Si](C)(C)OCCCCCCN(C)Cc1cn(C2[C@H](O)O[C@H](CO)[C@@H](O)[C@@H]2O)nn1 (some centres unmarked) [Example 68]",
    "assay.result": 68.1
  }
]

Q: Identify Viability (%) at different lipid concentrations, mean associated with the compound CCCCC/C=C\C/C=C\CCCCCCCCOC(CCCCCCC/C=C\C/C=C\CCCCC)O[Si](C)(C)OCCCCCCN(C)C (centres unmarked) [Example 79]
Result: 52.32

Q: Identify Viability (%) at different lipid concentrations, mean associated with the compound CCCCC/C=C\C/C=C\CCCCCCCC(OCCCCCCCC/C=C\CCCCCCCC)O[Si](C)(C)OCCCCCCN(CCO)CCO (centres unmarked) [Example 45]
Result: 64.9

Q: Identify Viability (%) at different lipid concentrations, mean associated with the compound CCCCCCCC/C=C\CCCCCCCC(OCCCCCCCCCCCCCCCC)O[Si](C)(C)OCCCCCCN(CCO)CCO (centres unmarked) [Example 42]
Result: 104.2

Q: Identify Viability (%) at different lipid concentrations, mean associated with the compound CCCCCCCC/C=C\CCCCCCCC(OCCCCCCCCCCCCCCC(C)C)O[Si](C)(C)OCCCCCCN(CCO)CCO (centres unmarked) [Example 76]
Result: 77.7

Q: Identify Viability (%) at different lipid concentrations, mean associated with the compound CCCCCCCC/C=C\CCCCCCCC(OCC(CCCCCCCC)SCCCCC)O[Si](C)(C)OCCCCCCN(CCO)CCO (centres unmarked) [Example 72]
Result: 110.6

Q: Identify Viability (%) at different lipid concentrations, mean associated with the compound CCCCCCCC/C=C\CCCCCCCCOC(CCCCCCC/C=C\CCCCCCCC)O[Si](C)(C)OCCCCCCN(CCO)CCO (centres unmarked) [Example 47]
Result: 97.9

Measured values drawn from patent US20260109721A1 for this set.
